- Measured On: Lactoylglutathione lyase (Homo sapiens)
- Sequence (Q04760 whole entry): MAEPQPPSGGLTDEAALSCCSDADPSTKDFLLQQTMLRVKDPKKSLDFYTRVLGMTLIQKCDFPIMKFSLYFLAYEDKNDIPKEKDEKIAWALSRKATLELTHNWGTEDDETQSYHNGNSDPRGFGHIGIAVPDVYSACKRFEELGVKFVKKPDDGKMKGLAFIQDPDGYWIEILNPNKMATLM
- Measurement Protocol: Inhibition of recombinant human His-tagged glyoxalase 1 expressed in Escherichia coli BL21 assessed as formation of S-D-lactoylglutathione after 5 mins by spectrophotometric method
Assay Endpoint: pIC50
Just so you know, pIC50 here is -log10 of the concentration in molar units; reply with that number alone.

- Structure Smiles String: "COc1ccc(/C=C(/CC(=O)O)c2nc3ccccc3s2)cc1"
  Measured On: "Lactoylglutathione lyase (Homo sapiens)"
  pIC50: 5.70
- Structure Smiles String: "COc1ccc(C(=O)Nc2sc3c(c2C(=O)O)CCCC3)cc1"
  Measured On: "Lactoylglutathione lyase (Homo sapiens)"
  pIC50: 4.26

As a next step, examine the molecule that follows.
Prompt line: May I ask what pIC50 has been recorded for COc1ccc(C(=O)Nc2ccccc2C(=O)O)cc1 ?
Response line: 4.03
